Kindly supply the reported Activity values for the records listed here.
Tested on: PC-12
Assay: Potentiation of NGF-induced neurite outgrowth-promotion in rat PC12 cells assessed as increase in neurite length at 10 uM incubated for 4 days in presence of 0.5 ng/mL NGF (reference value: 21.1 micrometer)
Assay type: functional

May I ask what Activity has been recorded for CC1(C)CC[C@]2(CC[C@]3(C)C(=CC[C@@H]4[C@@]5(C)C[C@@H](O)[C@H](O)[C@@](C)(CO)[C@@H]5CC[C@]43C)[C@H]2O)C1 ?
33.1 um

May I ask what Activity has been recorded for CC1(C)CC[C@]2(CC[C@]3(C)C(=CC[C@@H]4[C@@]5(C)C[C@@H](O)[C@H](OC(=O)/C=C/c6ccc(O)cc6)[C@@](C)(CO)[C@@H]5CC[C@]43C)[C@H]2O)C1 (relative stereo) ?
33.5 um

May I ask what Activity has been recorded for COc1cc(/C=C\C(=O)O[C@H]2[C@H](O)C[C@@]3(C)[C@@H](CC[C@]4(C)[C@@H]3CC=C3[C@@H](O)[C@@]5(CCC(C)(C)C5)CC[C@]34C)[C@]2(C)CO)ccc1O (relative stereo) ?
42 um

May I ask what Activity has been recorded for CC1(C)CC[C@]2(CC[C@]3(C)C(=CC[C@@H]4[C@@]5(C)C[C@@H](O)[C@H](OC(=O)/C=C\c6ccc(O)cc6)[C@@](C)(CO)[C@@H]5CC[C@]43C)[C@H]2O)C1 (relative stereo) ?
33.5 um

May I ask what Activity has been recorded for COc1cc(/C=C/C(=O)O[C@H]2[C@H](O)C[C@@]3(C)[C@@H](CC[C@]4(C)[C@@H]3CC=C3[C@@H](O)[C@@]5(CCC(C)(C)C5)CC[C@]34C)[C@]2(C)CO)ccc1O (relative stereo) ?
42 um
